# system name: RELA (p65) subunit of heterodimer;p52 subunit (Homo sapiens;Homo sapiens, UniProt Q04206;Q00653 1-307;4-332)
# protocol: protein binding microarray; high values mean tight binding
# test conditions: dsDNA, one strand shown

# record sequence, binding signal
data = [
    ("GAGTGTACCCC", "0.0373 z-score"),
    ("GGAGAACCCCC", "1.77 z-score"),
    ("GAATACATCCT", "-0.805 z-score"),
    ("GGGTGTTCCCC", "2.7 z-score"),
    ("AAAAATCCCCT", "2.84 z-score"),
    ("GAATGATCCCC", "0.697 z-score"),
    ("AGGAAACTCCT", "-0.54 z-score"),
    ("GAAAAGGCCCC", "0.416 z-score"),
    ("GGAAGTTTCCC", "1.22 z-score"),
    ("CGGTTATCCCT", "0.272 z-score"),
    ("AAGAGGCCCCT", "-0.248 z-score"),
    ("GAGGGCTCCCC", "-0.108 z-score"),
    ("GGATGCGTCCT", "-0.853 z-score"),
    ("CAATTTATCCT", "-0.71 z-score"),
    ("CGAGAAATCCC", "0.718 z-score"),
    ("GGGTGAATCCT", "0.102 z-score"),
    ("AGGATTGTCCT", "-0.766 z-score"),
    ("CGGGTGCCCCC", "0.707 z-score"),
    ("GAGTTCTTCCT", "-0.734 z-score"),
    ("AGAAACTTCCC", "0.818 z-score"),
    ("CAGGGGATCCC", "1.49 z-score"),
    ("CGATTGACCCC", "-0.288 z-score"),
    ("AAGTATGCCCC", "0.0585 z-score"),
    ("GAGTGGATCCT", "-1 z-score"),
    ("AGGTTTTCCCC", "2.48 z-score"),
    ("GAAGGGACCCC", "0.512 z-score"),
    ("CGGGAGCTCCC", "0.0305 z-score"),
    ("AAGGTAGCCCC", "0 z-score"),
    ("AAAGACGCCCC", "0.105 z-score"),
    ("CAGGATATCCC", "-0.0926 z-score"),
    ("CGGTGGATCCC", "1.33 z-score"),
    ("AGATGAACCCC", "-0.342 z-score"),
    ("GGATTAGCCCC", "0.293 z-score"),
    ("AGGGATCTCCC", "1.32 z-score"),
    ("AGGAAGCCCCC", "1.31 z-score"),
    ("AAATTTTTCCC", "1.37 z-score"),
    ("AAAGAATTCCC", "1.25 z-score"),
    ("CGAAGCTTCCC", "-0.568 z-score"),
    ("CAGAAGTCCCT", "1.35 z-score"),
    ("GGATGATTCCT", "-0.749 z-score"),
    ("GGAGTAATCCC", "-0.103 z-score"),
    ("GGATTCCCCCT", "2.73 z-score"),
]

* * *

# system name: p52p52 homodimer (Homo sapiens, UniProt Q00653 4-332)
# Sequence: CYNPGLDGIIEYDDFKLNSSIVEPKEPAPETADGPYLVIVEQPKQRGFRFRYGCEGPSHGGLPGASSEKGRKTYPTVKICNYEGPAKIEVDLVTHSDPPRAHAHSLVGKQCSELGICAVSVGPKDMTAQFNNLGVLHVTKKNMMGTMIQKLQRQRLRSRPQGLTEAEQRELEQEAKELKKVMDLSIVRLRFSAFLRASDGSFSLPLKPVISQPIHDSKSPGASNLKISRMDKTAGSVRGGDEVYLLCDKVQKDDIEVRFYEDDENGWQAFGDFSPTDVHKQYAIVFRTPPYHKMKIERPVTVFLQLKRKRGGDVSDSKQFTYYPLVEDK
# protocol: protein binding microarray; high values mean tight binding
# test conditions: dsDNA, one strand shown

# record sequence, system name, binding signal / z-score
measured = [
    ("AGAGGTTCCCC", "p52p52 homodimer (Homo sapiens, UniProt Q00653 4-332)", 1.33),
    ("GGAAGGGCCCC", "p52p52 homodimer (Homo sapiens, UniProt Q00653 4-332)", -0.0891),
    ("GAGGACGTCCC", "p52p52 homodimer (Homo sapiens, UniProt Q00653 4-332)", 0.388),
    ("AAGGTCCCCCC", "p52p52 homodimer (Homo sapiens, UniProt Q00653 4-332)", 0.844),
    ("GAGTGCCCCCT", "p52p52 homodimer (Homo sapiens, UniProt Q00653 4-332)", 0.614),
    ("GAGGGTGTCCC", "p52p52 homodimer (Homo sapiens, UniProt Q00653 4-332)", 0.206),
    ("AGATTCTTCCT", "p52p52 homodimer (Homo sapiens, UniProt Q00653 4-332)", -0.546),
    ("AAAAAGGTCCC", "p52p52 homodimer (Homo sapiens, UniProt Q00653 4-332)", 0.569),
    ("GAAAGACCCCC", "p52p52 homodimer (Homo sapiens, UniProt Q00653 4-332)", 0.754),
    ("AAAGGATCCCT", "p52p52 homodimer (Homo sapiens, UniProt Q00653 4-332)", -0.198),
    ("GGGGTCTCCCT", "p52p52 homodimer (Homo sapiens, UniProt Q00653 4-332)", 1.4),
    ("AAGTGCCTCCC", "p52p52 homodimer (Homo sapiens, UniProt Q00653 4-332)", -0.495),
    ("AAAATAGTCCT", "p52p52 homodimer (Homo sapiens, UniProt Q00653 4-332)", -0.497),
    ("CAGTGAGTCCC", "p52p52 homodimer (Homo sapiens, UniProt Q00653 4-332)", 0.308),
    ("CGGTAACTCCC", "p52p52 homodimer (Homo sapiens, UniProt Q00653 4-332)", 1.03),
    ("CAGAGTGCCCT", "p52p52 homodimer (Homo sapiens, UniProt Q00653 4-332)", -0.629),
    ("CGATTAATCCC", "p52p52 homodimer (Homo sapiens, UniProt Q00653 4-332)", -0.0861),
    ("AAAAACATCCT", "p52p52 homodimer (Homo sapiens, UniProt Q00653 4-332)", -0.575),
    ("AAGTATGCCCC", "p52p52 homodimer (Homo sapiens, UniProt Q00653 4-332)", -0.0889),
    ("AAGAACACCCC", "p52p52 homodimer (Homo sapiens, UniProt Q00653 4-332)", 0.0847),
]

* * *

This listing pairs sequences with measured binding signal.
# system name: p50p50 homodimer (Homo sapiens, UniProt P19838 7-356)
# Sequence (P19838 7-356): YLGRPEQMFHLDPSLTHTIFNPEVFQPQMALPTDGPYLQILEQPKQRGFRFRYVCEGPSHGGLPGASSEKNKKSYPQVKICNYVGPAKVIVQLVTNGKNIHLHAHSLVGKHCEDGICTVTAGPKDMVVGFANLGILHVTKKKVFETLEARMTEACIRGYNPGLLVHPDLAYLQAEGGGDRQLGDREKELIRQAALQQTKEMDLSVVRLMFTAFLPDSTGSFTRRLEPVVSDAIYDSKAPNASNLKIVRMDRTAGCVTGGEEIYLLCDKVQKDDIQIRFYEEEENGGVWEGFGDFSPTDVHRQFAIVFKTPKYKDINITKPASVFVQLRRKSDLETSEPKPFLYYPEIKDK
# protocol: protein binding microarray; high values mean tight binding
# test conditions: dsDNA, one strand shown

# record sequence, binding signal (z-score)
data = [
    ("AAATGAGTCCT", -1.04),
    ("CGAGGCATCCC", -1.34),
    ("GGAATATCCCT", 0.687),
    ("AGAAGGCCCCT", 0.412),
    ("AAGGACGCCCT", -2.2),
    ("AGATGGTCCCC", 0.441),
    ("GAGTATATCCT", -1.06),
    ("GAGGGTGTCCC", 0.0932),
    ("GAATTCCTCCC", -0.0187),
    ("CAGGGCCTCCC", -0.933),
]

The origin of these recorded values is paper PMC3218832.
